Tested on: RAW 264.7 cells (growth, thymidine incorporation)
Assay: Cytotoxicity by 3H-thymidine incorporation in murine RAW 264.7 cells
Conditions: mouse, RAW 264.7 cells
Measurement name: IC50 at 48 h

Challenge: RAW 264.7 cells (growth, thymidine incorporation) / IC50 at 48 h / "O=CCCCC=O" : value?
Response given: < 0.15 µg/mL

Data credit: patent US20100159012A1
